- System: TFEB
- measurement_notes: TFEB nuclear translocation assay
- Type: cell-based
- details: Homo sapiens; HeLa wt or HeLa TRPML1 KO cells, treated for 2 hrs; ratio of nuclear to ring-region TFEB intensity
Each record here notes measured EC50.

> print(dat)
                                   compound  assayed.target   result
1  CN(C)S(=O)(=O)c1ccc(S(=O)(=O)N2CC3(CCCC3)n3nccc32)cc1            TFEB  ≥ 10 µM
2  CN1Cc2cc(S(=O)(=O)N3CC4(CCCC4)c4ccccc43)ccc2C1=O            TFEB  ≥ 10 µM

Input: Provide EC50 value for the following compound: O=S(=O)(c1ccc(C(F)F)cc1)N1CC2(CCCC2)c2ccccc21
Output: ≥ 10 µM

Input: Provide EC50 value for the following compound: CS(=O)(=O)c1ccc(S(=O)(=O)N2CC3(CCN(C(=O)OCc4ccccc4)CC3)c3ccccc32)cc1
Output: ≤ 2 µM

Where do these numbers come from? They come from patent US20230416262A1.
